This listing pairs compounds with measured normalized growth.
- Method notes: chemical genetic growth profiling, strain panel (AID 1159580);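 note: tested at 20 µM; growth read once vehicle control cultures reached saturation at 30 °C; 1 = growth at the plate median or of vehicle wells; lower values mean less growth of the strain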
- Details: S. cerevisiae deletion strains, growth OD, locus YNL209W, strain ssb2, active compounds read low
Among all 5,500 compounds or so, about 2,000 (36%) were called active. Inconclusive results (about 18%) are left out. This is one part of the list.

# Compound, normalized growth
data = [
    ("COc1cc(C(=O)O[C@H]2CC[C@@]3(C)[C@@H]4CC[C@H]5[C@]6(O)C[C@H](O)[C@@]7(O)[C@@H](CN8C[C@@H](C)CC[C@H]8[C@@]7(C)O)[C@]6(O)C[C@@]53O[C@]24O)cc(OC)c1OC", 0.997),
    ("CC1(C)CC[C@@]2(C(=O)O)C(C1)C1=CCC3[C@@]4(C)CC[C@H](O)C(C)(C)C4CC[C@@]3(C)[C@]1(C)C[C@@H]2O (some centres undefined)", 1.03),
    ("C[C@@H]1CC[C@]2(C(=O)O)CC[C@]3(C)C(=CCC4[C@@]5(C)CC[C@H](O)C(C)(C)C5CC[C@]43C)C2[C@H]1C (some centres undefined)", 0.993),
    ("C[C@H]1[C@H](C)CC[C@]2(CO)CC[C@]3(C)C(=CCC4[C@@]5(C)CC[C@H](O)C(C)(C)C5CC[C@]43C)[C@H]12 (some centres undefined)", 0.988),
]

----------
- Method notes: chemical genetic growth profiling, strain panel (AID 1159580);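 note: tested at 20 µM; growth read once vehicle control cultures reached saturation at 30 °C; 1 = growth at the plate median or of vehicle wells; lower values mean less growth of the strain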
- Details: S. cerevisiae deletion strains, growth OD, locus YJL154C, strain vps35, active compounds read low
About 2,000 (36%) of roughly 5,500 compounds were called active. About 18% were inconclusive and are not listed. The list shows a part of the results. Where a SMILES comes first, the peptide text is derived from it. Bridges are numbered along the chain shown (N, C = ends). [ ]: non-standard residue; d: D form. The star is where a group is joined. ξ: configuration not given here. ξDab(CH2SO3H) = NC(CCNCS(=O)(=O)O)C(=O)O; Heptanoyl(6-Me) = CC(C)CCCCC(=O)*; Dab = NCC[CH](N)C(=O)O
This listing pairs molecules with measured normalized growth.
Observed property: normalized growth

# Molecule, Meas value
records = [
    ("CCN1C[C@]2(OC(=O)c3ccccc3NC(C)=O)CCC(OC)[C@]34C1[C@H](CC23)[C@@]1(O)CC(OC)[C@H]2CC4C1(O)[C@H]2OC (some centres undefined)", "0.952 (inactive)"),
    ("Cc1cn([C@H]2C[C@H](N=[N+]=[N-])[C@@H](CO)O2)c(=O)[nH]c1=O", "0.998 (inactive)"),
    ("CCC(C)C1NC(=O)C(CCNCS(=O)(=O)O)NC(=O)C(NC(=O)C(CCNCS(=O)(=O)O)NC(=O)C(NC(=O)C(CCNCS(=O)(=O)O)NC(=O)CCCCC(C)C)C(C)O)CCNC(=O)C(C(C)O)NC(=O)C(CCNCS(=O)(=O)O)NC(=O)C(CCNCS(=O)(=O)O)NC(=O)C(C(C)CC)NC1=O (centres undefined) ({Heptanoyl(6-Me)}-[ξDab(CH2SO3H)]T[ξDab(CH2SO3H)][Dab][ξDab(CH2SO3H)]II[ξDab(CH2SO3H)][ξDab(CH2SO3H)]T; lactam 4-C; configuration not given here)", "0.98 (inactive)"),
    ("C[C@@H]1CC[C@]2(C(=O)O)CC[C@]3(C)C(=CCC4[C@@]5(C)CC[C@H](O)C(C)(C)C5CC[C@]43C)C2[C@H]1C (some centres undefined)", "0.997 (inactive)"),
    ("CC1(C)CC[C@@]2(C(=O)O)C(C1)C1=CCC3[C@@]4(C)CC[C@H](O)C(C)(C)C4CC[C@@]3(C)[C@]1(C)C[C@@H]2O (some centres undefined)", "1 (inactive)"),
    ("CCOP(=S)(OCC)Oc1nc(Cl)c(Cl)cc1Cl", "0.937 (inactive)"),
    ("Cc1ccnc(NS(=O)(=O)c2ccc(N)cc2)n1", "1.01 (inactive)"),
    ("C/C=C(/C)C(=O)O[C@@H]1[C@H](OC(C)=O)[C@@]2(CO)C(CC1(C)C)C1=CCC3[C@@]4(C)CC[C@H](O[C@@H]5O[C@H](C(=O)O)[C@@H](O[C@@H]6O[C@H](CO)[C@@H](O)[C@H](O)[C@H]6O)[C@H](O)[C@H]5O[C@@H]5O[C@H](CO)[C@@H](O)[C@H](O)[C@H]5O)[C@](C)(CO)C4CC[C@@]3(C)[C@]1(C)C[C@H]2O (some centres undefined)", "0.987 (inactive)"),
    ("Nc1ccc(S(=O)(=O)Nc2cnc3ccccc3n2)cc1", "1.02 (inactive)"),
    ("CNC(=O)O/N=C\\C(C)(C)SC", "1.02 (inactive)"),
    ("CC(C)(C#N)O[C@@H]1O[C@H](CO)[C@@H](O)[C@H](O)[C@H]1O", "1.01 (inactive)"),
    ("C[C@]12CCC(=O)C=C1CCC1C2[C@@H](O)C[C@@]2(C)C1CC[C@]2(O)C(=O)CO (some centres undefined)", "0.991 (inactive)"),
    ("CC1(C)CCC2(C(=O)O)CCC3(C)C(=CCC4C5(C)CCC(O)C(C)(C)C5C(O)CC43C)C2C1 (centres undefined)", "1.02 (inactive)"),
    ("C[C@H]1[C@H](C)CC[C@]2(CO)CC[C@]3(C)C(=CCC4[C@@]5(C)CC[C@H](O)C(C)(C)C5CC[C@]43C)[C@H]12 (some centres undefined)", "0.986 (inactive)"),
]

----------
- Method notes: chemical genetic growth profiling, strain panel (AID 1159580);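 note: tested at 20 µM; growth read once vehicle control cultures reached saturation at 30 °C; 1 = growth at the plate median or of vehicle wells; lower values mean less growth of the strain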
- Details: S. cerevisiae deletion strains, growth OD, locus YER111C, strain swi4, active compounds read low
The whole screen tested about 5,500 compounds, of which about 2,000 (36%) were called active. Not shown: some 18% with an inconclusive outcome. The list shows a part of the results.
Observed property: normalized growth

# Compound, Observed property, Meas value
measured = [
    ("C[C@@H]1CC[C@H]2[C@@H](C)C(=O)O[C@@H]3O[C@@]4(C)CC[C@@H]1[C@]32OO4", "normalized growth", 0.93),
    ("Cc1cc(C(C)(C)C)c(O)c(C(C)(C)C)c1", "normalized growth", 0.982),
    ("NC12CC3CC(CC(C3)C1)C2", "normalized growth", 0.998),
    ("OC(CCN1CCCC1)(c1ccccc1)C1CCCCC1 (stereo unspecified)", "normalized growth", 1),
    ("CC(C)(C#N)O[C@@H]1O[C@H](CO)[C@@H](O)[C@H](O)[C@H]1O", "normalized growth", 1.01),
    ("OC(CCN1CCCCC1)(c1ccccc1)C1CCCCC1 (stereo unspecified)", "normalized growth", 0.961),
    ("COc1c(-c2coc3cc4c(cc3c2=O)CC(O)C(C)(C)O4)ccc2c1C=CC(C)(C)O2 (stereo unspecified)", "normalized growth", 0.973),
    ("CCCOc1ccccc1-c1nc2n[nH]nc2c(=O)[nH]1", "normalized growth", 1.01),
    ("NCCC(=O)N[C@@H](Cc1cnc[nH]1)C(=O)O", "normalized growth", 0.992),
    ("COc1c(-c2coc3cc4c(cc3c2=O)CC(OC(C)=O)C(C)(C)O4)ccc2c1C=CC(C)(C)O2 (stereo unspecified)", "normalized growth", 1.02),
    ("OC(CCN1CCCCC1)(c1ccccc1)C1CC2C=CC1C2 (stereo unspecified)", "normalized growth", 1),
]

----------
- Method notes: chemical genetic growth profiling, strain panel (AID 1159580);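 note: tested at 20 µM; growth read once vehicle control cultures reached saturation at 30 °C; 1 = growth at the plate median or of vehicle wells; lower values mean less growth of the strain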
- Details: S. cerevisiae deletion strains, growth OD, locus YJL095W, strain BCK1 (second series), active compounds read low
In all, about 5,500 compounds went through this assay and about 2,000 (36%) were called active. Inconclusive results (about 18%) are left out. The list shows a part of the results. Where a SMILES comes first, the peptide text is derived from it. Bridges are numbered along the chain shown (N, C = ends). [ ]: non-standard residue; d: D form. The star is where a group is joined. ξ: configuration not given here. ξDab(CH2SO3H) = NC(CCNCS(=O)(=O)O)C(=O)O; Heptanoyl(6-Me) = CC(C)CCCCC(=O)*; Dab = NCC[CH](N)C(=O)O

# Compound, normalized growth
records = [
    ("Nc1ccccc1C(=O)CC(N)C(=O)O (stereo unspecified)", 0.993),
    ("NNC(=O)c1ccncc1", 1.01),
    ("Nc1c2c(nc3ccccc13)CCCC2O (stereo unspecified)", 1.01),
    ("FC(F)(F)c1ccccc1-n1ccnc1", 0.994),
    ("Clc1ccccc1C(c1ccccc1)(c1ccccc1)n1ccnc1", 0.059),
    ("Cc1ccnc(NS(=O)(=O)c2ccc(N)cc2)n1", 1),
    ("O=c1ccc2ccc(O)cc2o1", 1),
    ("Nc1c2ccccc2nc2ccccc12 (tested in a mixture with another compound)", 0.766),
    ("C/C=C(/C)C(=O)OC1CCC2(C)C3CCC4C5(O)CC(O)C6(O)C(CN7CC(C)CCC7C6(C)O)C5(O)CC42OC13O (stereo unspecified)", 1),
    ("NC(N)=N/N=C/c1c(Cl)cccc1Cl", 0.982),
    ("NNc1nncc2ccccc12", 0.999),
    ("C#C[C@]1(OC(C)=O)CCC2C3CCC4=CC(=O)CC[C@@H]4C3CC[C@@]21C (stereo partly specified)", 0.984),
    ("C[C@@H]1CC[C@]2(C(=O)O)CC[C@]3(C)C(=CCC4[C@@]5(C)CC[C@H](O)C(C)(C)C5CC[C@]43C)C2[C@H]1C (stereo partly specified)", 0.988),
    ("CC(C)CC(N(C)C)C1(c2ccc(Cl)cc2)CCC1 (stereo unspecified)", 1),
    ("C/C=C(/C)C(=O)O[C@@H]1[C@H](OC(C)=O)[C@@]2(CO)C(CC1(C)C)C1=CCC3[C@@]4(C)CC[C@H](O[C@@H]5O[C@H](C(=O)O)[C@@H](O[C@@H]6O[C@H](CO)[C@@H](O)[C@H](O)[C@H]6O)[C@H](O)[C@H]5O[C@@H]5O[C@H](CO)[C@@H](O)[C@H](O)[C@H]5O)[C@](C)(CO)C4CC[C@@]3(C)[C@]1(C)C[C@H]2O (stereo partly specified)", 0.992),
    ("CCN1C[C@]2(OC(=O)c3ccccc3NC(C)=O)CCC(OC)[C@]34C1[C@H](CC23)[C@@]1(O)CC(OC)[C@H]2CC4C1(O)[C@H]2OC (stereo partly specified)", 0.974),
    ("COc1c(-c2coc3cc4c(cc3c2=O)CC(O)C(C)(C)O4)ccc2c1C=CC(C)(C)O2 (stereo unspecified)", 0.983),
    ("CC(=O)/C=C\\[C@@H]1[C@@]2(C)CCCC(C)(C)C2CC[C@@]1(C)O (stereo partly specified)", 0.963),
    ("COc1ccc2[nH]cc(CCN)c2c1", 0.992),
    ("O=C1c2c(O)cccc2Cc2cccc(O)c21", 0.967),
    ("CCOC(=O)OC(C)OC(=O)C1N2C(=O)C(NC(=O)[C@H](N)c3ccccc3)C2SC1(C)C (stereo partly specified)", 0.994),
    ("CO[C@@]12[C@@H]3NC3CN1C1=C(C(=O)C(N)=C(C)C1=O)[C@@H]2COC(N)=O (stereo partly specified)", 0.967),
    ("Nc1ccc(S(=O)(=O)Nc2ccnn2-c2ccccc2)cc1", 0.996),
    ("NC(Cc1c[nH]c2ccccc12)C(=O)O (stereo unspecified)", 1.02),
    ("CC1(C)CC[C@@]2(C(=O)O)C(C1)C1=CCC3[C@@]4(C)CC[C@H](O)C(C)(C)C4CC[C@@]3(C)[C@]1(C)C[C@@H]2O (stereo partly specified)", 1.01),
    ("C/C=C1\\[C@H]2C=C(C)C[C@]1(N)c1ccc(=O)[nH]c1C2", 1.01),
    ("OC(CCN1CCCCC1)(c1ccccc1)C1CCCCC1 (stereo unspecified)", 0.971),
    ("CCCCCCCCCCCCCCC(C(=O)O)C(O)(CC(=O)OC)C(=O)O (stereo unspecified)", 1),
    ("CCC(C)C1NC(=O)C(CCNCS(=O)(=O)O)NC(=O)C(NC(=O)C(CCNCS(=O)(=O)O)NC(=O)C(NC(=O)C(CCNCS(=O)(=O)O)NC(=O)CCCCC(C)C)C(C)O)CCNC(=O)C(C(C)O)NC(=O)C(CCNCS(=O)(=O)O)NC(=O)C(CCNCS(=O)(=O)O)NC(=O)C(C(C)CC)NC1=O (stereo unspecified) ({Heptanoyl(6-Me)}-[ξDab(CH2SO3H)]T[ξDab(CH2SO3H)][Dab][ξDab(CH2SO3H)]II[ξDab(CH2SO3H)][ξDab(CH2SO3H)]T; lactam 4-C; configuration not given here)", 0.987),
    ("C[C@H]1[C@H](C)CC[C@]2(CO)CC[C@]3(C)C(=CCC4[C@@]5(C)CC[C@H](O)C(C)(C)C5CC[C@]43C)[C@H]12 (stereo partly specified)", 1.01),
    ("CC(C)(Oc1ccc(CCNC(=O)c2ccc(Cl)cc2)cc1)C(=O)O", 0.983),
    ("CNC(=O)O/N=C\\C(C)(C)SC", 1),
    ("COc1cc(N)c(Cl)cc1C(=O)NC1CCN(Cc2ccccc2)CC1", 0.998),
    ("CCOc1ccc2nc3cc(N)ccc3c(N)c2c1", 0.785),
    ("O=c1oc2cc(O)ccc2s1", 1.02),
    ("CC(C)=CCCC1(C)C=Cc2c(O)c3c(c(CC=C(C)C)c2O1)OC12C(=CCCC1C(C)(C)O[C@@]2(C/C=C(\\C)C(=O)O)C(=O)O)C3=O (stereo partly specified)", 0.609),
]
